Target: Sentrin-specific protease 6 (Homo sapiens, UniProt Q9GZR1)
Sequence (Q9GZR1 whole entry): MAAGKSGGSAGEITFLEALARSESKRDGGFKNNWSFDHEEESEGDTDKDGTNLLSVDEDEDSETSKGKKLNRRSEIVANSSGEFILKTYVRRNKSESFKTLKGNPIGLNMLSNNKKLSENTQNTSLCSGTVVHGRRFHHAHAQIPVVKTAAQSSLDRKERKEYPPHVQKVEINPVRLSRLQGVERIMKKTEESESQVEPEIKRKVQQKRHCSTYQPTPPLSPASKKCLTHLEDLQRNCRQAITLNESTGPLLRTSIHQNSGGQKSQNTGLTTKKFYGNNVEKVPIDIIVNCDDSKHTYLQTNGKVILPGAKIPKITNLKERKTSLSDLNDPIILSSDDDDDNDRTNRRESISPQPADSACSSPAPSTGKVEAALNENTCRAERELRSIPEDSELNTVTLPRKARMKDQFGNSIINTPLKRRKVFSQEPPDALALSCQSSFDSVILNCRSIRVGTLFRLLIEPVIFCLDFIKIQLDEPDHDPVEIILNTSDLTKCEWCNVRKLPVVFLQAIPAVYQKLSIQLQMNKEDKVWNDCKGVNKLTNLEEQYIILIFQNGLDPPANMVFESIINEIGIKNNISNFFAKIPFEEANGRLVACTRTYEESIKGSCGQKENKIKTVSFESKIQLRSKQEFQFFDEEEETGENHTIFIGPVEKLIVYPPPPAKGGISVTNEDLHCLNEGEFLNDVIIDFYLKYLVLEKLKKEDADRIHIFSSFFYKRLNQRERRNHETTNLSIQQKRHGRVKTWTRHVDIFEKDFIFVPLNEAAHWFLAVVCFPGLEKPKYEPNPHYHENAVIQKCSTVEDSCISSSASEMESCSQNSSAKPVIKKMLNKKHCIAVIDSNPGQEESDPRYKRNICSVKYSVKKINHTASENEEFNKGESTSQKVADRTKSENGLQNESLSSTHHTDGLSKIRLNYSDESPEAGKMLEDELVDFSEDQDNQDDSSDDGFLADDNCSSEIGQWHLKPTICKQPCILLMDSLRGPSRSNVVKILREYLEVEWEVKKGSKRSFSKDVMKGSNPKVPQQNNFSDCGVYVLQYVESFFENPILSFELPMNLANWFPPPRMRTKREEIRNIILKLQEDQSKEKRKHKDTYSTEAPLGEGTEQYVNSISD
Test: SAR Analysis of small molecule inhibitors of Sentrin-specific protease 6 (SENP6) using a Luminescent assay. [Related pubchem assays (depositor defined):AID2582, AID2599]
Format: functional
The source made the active and inactive calls. Cut-off read from the data, not from the text of the source: actives have a measured IC50 and inactives only a lower limit.
// one of active, inactive, no free text

{"columns": ["chemical-structure", "classification"],
 "data": [
  ["Fc1ccc(N/N=C/c2c[nH]c3ccccc23)cc1", "active"],
  ["COc1ccc(C(=O)NN=c2c(=O)c3ccccc3c2=O)cc1", "active"],
  ["O=C(Nc1ccc(F)cc1)c1ccc2c(c1)OCO2", "active"],
  ["O=C(O)CCN1C(=O)/C(=C/c2cccc(OCC(=O)Nc3ccc(Cl)cc3)c2)SC1=S", "active"]
]}

Check the results log: what was the call for `COc1ccc2c(C#N)c3ccccn3c2c1` ?
inactive

The measurements presented in this section are drawn from ChEMBL document CHEMBL1201862.
